Data origin: patent US20140107109A1

So I've got a bunch of compounds here, and I need their log10(IC50) values.
Biological target: Beta Secretase enzyme (BACE1) (Homo sapiens, UniProt P56817)
Sequence (P56817 46-501): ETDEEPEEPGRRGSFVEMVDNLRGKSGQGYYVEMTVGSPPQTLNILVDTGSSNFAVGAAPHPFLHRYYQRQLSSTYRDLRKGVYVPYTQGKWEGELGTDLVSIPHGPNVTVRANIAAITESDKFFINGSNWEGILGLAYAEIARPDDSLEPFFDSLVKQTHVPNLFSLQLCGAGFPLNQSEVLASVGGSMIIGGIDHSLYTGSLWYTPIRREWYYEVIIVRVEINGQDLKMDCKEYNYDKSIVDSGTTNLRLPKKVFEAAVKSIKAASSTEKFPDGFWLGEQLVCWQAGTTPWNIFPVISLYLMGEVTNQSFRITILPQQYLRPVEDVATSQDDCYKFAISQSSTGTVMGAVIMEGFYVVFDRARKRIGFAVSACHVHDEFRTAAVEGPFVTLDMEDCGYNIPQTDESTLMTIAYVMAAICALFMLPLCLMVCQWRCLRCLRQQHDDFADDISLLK
Test: In vitro enzymatic BACE FRET assay
Assay type: biochemical
Conditions: average IC50, enzyme assay; read-out: BACE1 FRET assay IC50
# log10 transformed; quantity=IC50; unit=nM

Exercise: Provide the reported log10(IC50) (system: Beta Secretase enzyme (BACE1) (Homo sapiens, UniProt P56817)) for Cc1ccnc(Oc2ccc(F)c([C@]3(C)CS(=O)(=O)C(C)(C)C(N)=N3)c2)c1C#N [Example 310]
Key: 3.13

Exercise: Provide the reported log10(IC50) (system: Beta Secretase enzyme (BACE1) (Homo sapiens, UniProt P56817)) for CC1(C)C(N)=N[C@](C)(c2cc(Oc3ccc4ccccc4n3)ccc2F)CS1(=O)=O [Example 261]
Key: 2.48

Exercise: Provide the reported log10(IC50) (system: Beta Secretase enzyme (BACE1) (Homo sapiens, UniProt P56817)) for CC1(C)C(N)=N[C@](C)(c2cc(Nc3nccc4cc(OCCF)cnc34)ccc2F)CS1(=O)=O [Example 421]
Key: 1.49

Exercise: Provide the reported log10(IC50) (system: Beta Secretase enzyme (BACE1) (Homo sapiens, UniProt P56817)) for CC1(C)C(N)=N[C@](C)(c2cc(NC(=O)N3CC=CCC3)ccc2F)CS1(=O)=O [Example 160]
Key: 2.76

Exercise: Provide the reported log10(IC50) (system: Beta Secretase enzyme (BACE1) (Homo sapiens, UniProt P56817)) for CC1(C)C(N)=N[C@](C)(c2cc(Nc3ncc(Cl)c4cc(Cl)cnc34)ccc2F)CS1(=O)=O [Example 192]
Key: -0.15

Exercise: Provide the reported log10(IC50) (system: Beta Secretase enzyme (BACE1) (Homo sapiens, UniProt P56817)) for CC(C)COc1cnc2c(Nc3ccc(F)c([C@]4(CF)CS(=O)(=O)C(C)(C)C(N)=N4)c3)ncc(F)c2c1 [Example 436]
Key: 0.63

Exercise: Provide the reported log10(IC50) (system: Beta Secretase enzyme (BACE1) (Homo sapiens, UniProt P56817)) for COc1cnc2c(Oc3ccc(F)c([C@]4(C)CS(=O)(=O)C(C)(C)C(N)=N4)c3)nccc2n1 [Example 303]
Key: 3.09

Exercise: Provide the reported log10(IC50) (system: Beta Secretase enzyme (BACE1) (Homo sapiens, UniProt P56817)) for CC1(C)C(N)=N[C@](C)(c2cc(Oc3nccc4cc(Cl)cnc34)ccc2F)CS1(=O)=O [Example 304]
Key: 2.10

Exercise: Provide the reported log10(IC50) (system: Beta Secretase enzyme (BACE1) (Homo sapiens, UniProt P56817)) for CC1(C)C(N)=N[C@](C)(c2cc(N)ccc2F)[C@@H](F)S1(=O)=O [Example 164]
Key: 3.57

Exercise: Provide the reported log10(IC50) (system: Beta Secretase enzyme (BACE1) (Homo sapiens, UniProt P56817)) for Cc1c(CNc2cc([C@]3(C)CS(=O)(=O)C(C)(C)C(N)=N3)c(F)cn2)nc2ccc(Cl)cn12 [Example 145]
Key: 2.64

Exercise: Provide the reported log10(IC50) (system: Beta Secretase enzyme (BACE1) (Homo sapiens, UniProt P56817)) for C[C@]1(F)C(N)=N[C@](C)(c2cc(NC(=O)c3cnc(OCC(F)(F)F)cn3)ccc2F)CS1(=O)=O [Example 325]
Key: -0.38

Exercise: Provide the reported log10(IC50) (system: Beta Secretase enzyme (BACE1) (Homo sapiens, UniProt P56817)) for CC1(C)C(N)=N[C@](C)(c2cc(Oc3cc(-c4ccccc4)ccn3)ccc2F)CS1(=O)=O [Example 289]
Key: 1.71

Exercise: Provide the reported log10(IC50) (system: Beta Secretase enzyme (BACE1) (Homo sapiens, UniProt P56817)) for CC1(C)C(N)=N[C@](C)(c2cc(Oc3c(C#N)ccnc3Cl)ccc2F)CS1(=O)=O [Example 308]
Key: 3.62

Exercise: Provide the reported log10(IC50) (system: Beta Secretase enzyme (BACE1) (Homo sapiens, UniProt P56817)) for CC1(C)C(N)=N[C@](C)(c2cc(NCc3c(Cl)cnn3CC(F)(F)F)ccc2F)CS1(=O)=O [Example 109]
Key: 2.32

Exercise: Provide the reported log10(IC50) (system: Beta Secretase enzyme (BACE1) (Homo sapiens, UniProt P56817)) for COc1cnc(C(=O)Nc2ccc(F)c([C@@]3(C)N=C(N)C(C)(C)S(=O)(=O)C3F)c2)c(C)c1 (stereo partly drawn) [Example 337]
Key: 0.50

Exercise: Provide the reported log10(IC50) (system: Beta Secretase enzyme (BACE1) (Homo sapiens, UniProt P56817)) for Cc1cc(Cl)cnc1C(=O)Nc1cnc(F)c([C@]2(C)CS(=O)(=O)C(C)(C)C(N)=N2)c1 [Example 347]
Key: 0.04

Exercise: Provide the reported log10(IC50) (system: Beta Secretase enzyme (BACE1) (Homo sapiens, UniProt P56817)) for CC1(C)C(N)=N[C@](C)(c2cc(Nc3nccc4cc(OCC(F)F)cnc34)ccc2F)CS1(=O)=O [Example 161]
Key: 1.16

Exercise: Provide the reported log10(IC50) (system: Beta Secretase enzyme (BACE1) (Homo sapiens, UniProt P56817)) for CC1(C)C(N)=N[C@](C)(c2cc(Oc3ccc(C#N)cn3)ccc2F)CS1(=O)=O [Example 282]
Key: 3.19

Exercise: Provide the reported log10(IC50) (system: Beta Secretase enzyme (BACE1) (Homo sapiens, UniProt P56817)) for CC1(C)C(N)=N[C@](C)(c2cc(NC(=O)c3ncc(Cl)cc3F)ccc2F)C(F)S1(=O)=O (stereo partly drawn) [Example 329]
Key: -0.33

Exercise: Provide the reported log10(IC50) (system: Beta Secretase enzyme (BACE1) (Homo sapiens, UniProt P56817)) for COc1cnc2c(Nc3cnc(F)c([C@]4(C)CS(=O)(=O)C(C)(C)C(N)=N4)c3)ncc(F)c2c1 [Example 219]
Key: 0.16

Exercise: Provide the reported log10(IC50) (system: Beta Secretase enzyme (BACE1) (Homo sapiens, UniProt P56817)) for CC1(C)C(N)=N[C@](C)(c2cc(Nc3ncnc4cc(Cl)cnc34)ccc2F)C(F)S1(=O)=O (stereo partly drawn) [Example 228]
Key: 0.52

Exercise: Provide the reported log10(IC50) (system: Beta Secretase enzyme (BACE1) (Homo sapiens, UniProt P56817)) for CC1(C)C(N)=N[C@](C)(c2cc(Oc3cc(C(F)(F)F)ccn3)ccc2F)CS1(=O)=O [Example 259]
Key: 2.18

Exercise: Provide the reported log10(IC50) (system: Beta Secretase enzyme (BACE1) (Homo sapiens, UniProt P56817)) for C[C@]1(F)C(N)=N[C@](C)(c2cc(NC(=O)c3ncc(C#N)cc3Cl)ccc2F)CS1(=O)=O [Example 327]
Key: -0.13

Exercise: Provide the reported log10(IC50) (system: Beta Secretase enzyme (BACE1) (Homo sapiens, UniProt P56817)) for CC1(C)C(N)=N[C@](CF)(c2cc(Nc3ncc(F)c4cc(OCC(F)F)cnc34)ccc2F)CS1(=O)=O [Example 437]
Key: 0.35

Exercise: Provide the reported log10(IC50) (system: Beta Secretase enzyme (BACE1) (Homo sapiens, UniProt P56817)) for Cc1cc(Cl)cnc1C(=O)Nc1ccc(F)c([C@@]2(C)N=C(N)C(C)(C)S(=O)(=O)C2F)c1 (stereo partly drawn) [Example 331]
Key: -0.52

Exercise: Provide the reported log10(IC50) (system: Beta Secretase enzyme (BACE1) (Homo sapiens, UniProt P56817)) for CC1(C)C(N)=N[C@](C)(c2cc(NC(=O)c3ccc(Cl)cn3)c[nH]c2=O)CS1(=O)=O [Example 452]
Key: 0.85

Exercise: Provide the reported log10(IC50) (system: Beta Secretase enzyme (BACE1) (Homo sapiens, UniProt P56817)) for CCc1cc(Cl)cnc1C(=O)Nc1ccc(F)c([C@]2(CF)CS(=O)(=O)C(C)(C)C(N)=N2)c1 [Example 197]
Key: 0.16

Exercise: Provide the reported log10(IC50) (system: Beta Secretase enzyme (BACE1) (Homo sapiens, UniProt P56817)) for CC1(C)C(N)=N[C@](C)(c2cc(Nc3nccc4cc(Cl)cnc34)cnc2F)CS1(=O)=O [Example 223]
Key: -0.09

Exercise: Provide the reported log10(IC50) (system: Beta Secretase enzyme (BACE1) (Homo sapiens, UniProt P56817)) for Cc1cc(OC2COC2)cnc1C(=O)Nc1ccc(F)c([C@]2(CF)CS(=O)(=O)C(C)(C)C(N)=N2)c1 [Example 150]
Key: 1.65

Exercise: Provide the reported log10(IC50) (system: Beta Secretase enzyme (BACE1) (Homo sapiens, UniProt P56817)) for CC1(C)C(N)=N[C@](C)(c2cc(Nc3ncnc4cc(Cl)cnc34)cnc2F)CS1(=O)=O [Example 225]
Key: 0.52
